B1: CPEB3 Ribozyme (parent)
chain: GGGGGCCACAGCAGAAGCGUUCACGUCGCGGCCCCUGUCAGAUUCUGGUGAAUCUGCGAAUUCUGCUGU

Variants of: B1
Assay: self-cleavage, relative activity (ratio to wild type); higher = more cleavage; co-transcriptional
Answer each item with its documented self-cleavage.
Numbers only.

| Mutation Id | self-cleavage |
| --- | --- |
| U49C A52U | 0.93 |
| G4A U61A | 0.477 |
| A40G U69A | 1.01 |
| C6A U55C | 0.142 |
| A52G C63G | 0.865 |

Please report self-cleavage for every entry that follows.
1. C7U U53A
2. G30C U67A
3. G11U G17C
4. G1U U55C
5. G5A U44C
6. U36G G41C
7. A16U U36A

Found:
0.861
0.869
0.129
0.0608
0.858
0.278
0.166
